In this section we review reported Kd values for a set of binders.
# tested-system: T1, EsCas13d, nuclease-dead (Eubacterium siraeum, UniProt B0MS50, R295A;H300A;R849A;H854A)
# T1 sequence: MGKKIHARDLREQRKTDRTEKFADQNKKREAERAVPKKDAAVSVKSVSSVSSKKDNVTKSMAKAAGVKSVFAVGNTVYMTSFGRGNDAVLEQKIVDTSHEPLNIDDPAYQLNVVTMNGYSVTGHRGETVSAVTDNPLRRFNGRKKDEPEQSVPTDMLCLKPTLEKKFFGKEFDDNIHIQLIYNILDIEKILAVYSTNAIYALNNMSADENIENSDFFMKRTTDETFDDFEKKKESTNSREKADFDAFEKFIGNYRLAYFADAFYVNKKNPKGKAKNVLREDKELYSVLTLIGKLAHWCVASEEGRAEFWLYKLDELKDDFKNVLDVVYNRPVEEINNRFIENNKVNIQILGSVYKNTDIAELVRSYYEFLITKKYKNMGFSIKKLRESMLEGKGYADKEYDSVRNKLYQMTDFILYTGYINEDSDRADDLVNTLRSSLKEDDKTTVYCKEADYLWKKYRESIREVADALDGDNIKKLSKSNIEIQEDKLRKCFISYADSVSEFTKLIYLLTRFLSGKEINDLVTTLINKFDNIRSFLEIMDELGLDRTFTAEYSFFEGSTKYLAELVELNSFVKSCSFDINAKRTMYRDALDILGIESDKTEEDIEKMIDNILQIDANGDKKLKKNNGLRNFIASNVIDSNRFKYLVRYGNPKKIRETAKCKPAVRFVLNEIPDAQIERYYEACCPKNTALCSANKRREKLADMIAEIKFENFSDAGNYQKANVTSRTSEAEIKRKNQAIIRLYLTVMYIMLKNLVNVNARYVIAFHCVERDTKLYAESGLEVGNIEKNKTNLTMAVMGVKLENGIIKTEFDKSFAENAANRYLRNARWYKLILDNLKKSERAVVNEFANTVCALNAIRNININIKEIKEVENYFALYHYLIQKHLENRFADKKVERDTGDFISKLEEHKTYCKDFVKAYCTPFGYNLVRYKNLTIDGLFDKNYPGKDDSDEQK
# protocol-details: crRNA (strand 1, pre-loaded); Mg2+; 40 mM Tris-HCl pH 7.5, 150 mM NaCl, 6 mM MgCl2, 1 mM DTT, 0.1% Tween-20, 0.2 mg/ml BSA; 25 C; 10 min per concentration, then washed
# experimental-conditions: tags: His6-TwinStrep-SUMO cleaved; N-terminal SNAP kept (SNAP-Surface 488); label: 3' end held by stalled T7 RNA polymerase
Your answer should be a plain number; it is taken to be in nM.

Sample records with Kd:
{"binder": "target 3 insC 3' of 3,insA 3' of 3 (mixed) RNA 1: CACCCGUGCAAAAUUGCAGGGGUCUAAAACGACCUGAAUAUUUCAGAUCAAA RNA 2: GGGAAUGGAUCCACAUCUACGAAUUCGUUUUUGAUCUGAAAUAUUCAGGCAUCUGCAGAUCGGAAGAGCACACGU", "property-label": "Kd", "data-value": 9.35}
{"binder": "target 2 MT 5'PFS UUG 3'PFS CAG (mixed) RNA 1: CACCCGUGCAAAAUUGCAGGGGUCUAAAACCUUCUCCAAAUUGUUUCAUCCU RNA 2: GGGAAUGGAUCCACAUCUACGAAUUCUUGAGGAUGAAACAAUUUGGAGAAGCAGAGAUCGGAAGAGCACACGU", "property-label": "Kd", "data-value": 11.8}
{"binder": "target 1 U11C,G12U (mixed) RNA 1: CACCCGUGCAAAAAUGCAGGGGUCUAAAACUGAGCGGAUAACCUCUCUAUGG RNA 2: GGGAAUGGAUCCACAUCUACGAAUUCGUACCAUAGAGAGUCUAUCCGCUCACCGAGAUCGGAAGAGCACACGU", "property-label": "Kd", "data-value": 10.2}

Continue with the binder presented below.
Problem: Item target 1 MT 5'PFS GAC 3'PFS CGU (mixed) RNA 1: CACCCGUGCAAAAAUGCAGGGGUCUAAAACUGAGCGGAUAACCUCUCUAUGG RNA 2: GGGAAUGGAUCCACAUCUACGAAUUCGACCCAUAGAGAGGUUAUCCGCUCACGUAGAUCGGAAGAGCACACGU has what recorded Kd?
Solution: 15.5
